- Test system: AECO001 (ATCC25922)
- experimental details: MIC broth microdilution, AECO001
- Format: cell-based, E. coli
- reported conditions: Escherichia coli, ATCC25922, read-out: MIC AECO001
Hi there, I'd appreciate the recorded MIC for every entry that follows.

### Prompt Which MIC is reported for this molecule? CC(C)(N)[C@H](NC(=O)c1ccc(/C=C/C#Cc2ccc(CNC3CC3)cc2)cc1)C(=O)NO [Example 113-6]
### Response < 2 µg/mL

### Prompt Look at this molecule and give its reported MIC. C[C@@H](N)[C@H](NC(=O)c1ccc(C#C/C=C/c2ccc(CO)cc2)cc1)C(=O)NO [Example 101-3]
### Response < 2 µg/mL

### Prompt Which measured MIC value corresponds to CCC#CC#Cc1ccc(C(=O)N[C@H](C(=O)NO)C(C)(C)N)cc1 [Example 91-1] ?
### Response < 2 µg/mL

### Prompt Given C[C@@H](N)[C@H](NC(=O)c1ccc(C#CC#Cc2ccccc2F)cc1)C(=O)NO [Example 82-7] , state its recorded MIC.
### Response < 2 µg/mL

### Prompt Which MIC is reported for this molecule? CO[C@H](C)[C@H](NC(=O)c1ccc(/C=C/C#Cc2ccc(CO)cc2)cc1)C(=O)NO [Example 112-4]
### Response < 2 µg/mL

### Prompt // query MIC value for entry CC(C)(O)[C@H](NC(=O)c1ccc(C#Cc2ccccc2)cc1)C(=O)NO [Example 133-14]
### Response < 2 µg/mL

### Prompt Name the reported MIC value associated with the molecule C[C@@H](N)[C@H](NC(=O)c1ccc(C#Cc2cccnc2)cc1)C(=O)NO [Example 133-9]
### Response 16 to 64 µg/mL

### Prompt Tell me the measured MIC of C[C@@H](N)[C@H](NC(=O)c1ccc(C#CC#Cc2ccc(CO)cc2)cc1)C(=O)NO [Example 82-3] , please.
### Response < 2 µg/mL

### Prompt What value of MIC has been recorded for this entry: CC(C)(O)[C@H](NC(=O)c1ccc(C#C/C=C/c2ccc(CNC3CC3)cc2)cc1)C(=O)NO [Example 102-5]
### Response < 2 µg/mL

### Prompt Param item = C[C@H](C#CC#Cc1ccc(C(=O)N[C@H](C(=O)NO)[C@@H](C)N)cc1)N1CCOCC1 [Example 92-1] ; retrieve measured MIC.
### Response 2 to 16 µg/mL

### Prompt Value lookup for MIC; key = C[C@@H](NCC(=O)N[C@H](C)[C@H](NC(=O)c1ccc(C#Cc2ccccc2)cc1)C(=O)NO)c1ccccc1 [Example 132-6]
### Response 2 to 16 µg/mL

### Prompt Form field: reported MIC of CC(C)(N)[C@H](NC(=O)c1ccc(C#CC#CCC2CCCC2)cc1)C(=O)NO [Example 91-23]
### Response < 2 µg/mL

### Prompt Returns the measured MIC for the input molecule. Input: C[C@@H](N)[C@H](NC(=O)c1ccc(C#CC#Cc2ccccc2)cc1)C(=O)NO [Example 82-4]
### Response < 2 µg/mL

### Prompt # input molecule: C[C@@H](NC(=O)CNC1CC1)[C@H](NC(=O)c1ccc(C#Cc2ccc(CO)cc2)cc1)C(=O)NO [Example 137-3] ; wanted: its MIC
### Response < 2 µg/mL

### Prompt Fill blank: measured MIC of the molecule C[C@@H](N)[C@H](NC(=O)c1ccc(/C=C/C#Cc2ccncc2)cc1)C(=O)NO [Example 114-8] is ____.
### Response < 2 µg/mL

### Prompt Look up MIC for this molecule: CC(C)C#C/C=C/c1ccc(C(=O)N[C@H](C(=O)NO)C(C)(C)N)cc1 [Example 114-19]
### Response < 2 µg/mL

* * *

Give measured MIC for each item. Keep answers brief.
- Test system: APAE001 (ATCC27853)
- experimental details: MIC broth microdilution, APAE001
- Format: cell-based, P. aeruginosa
- reported conditions: Pseudomonas aeruginosa, ATCC27853, read-out: MIC APAE001, APAE001 is ATCC27853

### Prompt Could you share what MIC was measured for `C[C@@H](N)[C@H](NC(=O)c1ccc(C#Cc2ccc(CNC3CCC3)cc2)cc1)C(=O)NO` , tested on APAE001 (ATCC27853)?
### Response < 2 µg/mL

### Prompt Provide value of MIC for this record tested with APAE001 (ATCC27853): `C[C@@H](O)[C@H](NC(=O)c1ccc(N2CCN(c3ccc(CN4CCOCC4)cc3)CC2)cc1)C(=O)NO`
### Response 16 to 64 µg/mL

### Prompt # value lookup — system APAE001 (ATCC27853), readout MIC, item `C[C@@H](N)[C@H](NC(=O)c1ccc(C#CC#Cc2ccc(N)cc2)cc1)C(=O)NO`
### Response < 2 µg/mL

### Prompt Could you share what MIC was measured for `CC(C)(O)[C@H](NC(=O)c1ccc(C#CC#Cc2ccc(CO)cc2)cc1)C(=O)NO` , tested on APAE001 (ATCC27853)?
### Response < 2 µg/mL

### Prompt Reported MIC for APAE001 (ATCC27853), given `C[C@@H](O)[C@H](NC(=O)c1ccc(C#Cc2cccc(OC(F)(F)F)c2)cc1)C(=O)NO` ?
### Response 16 to 64 µg/mL

### Prompt Form entry - test system: APAE001 (ATCC27853); read-out: MIC; molecule: `C[C@@H](N)[C@H](NC(=O)c1ccc(C#Cc2ccc(CCO)cc2)cc1)C(=O)NO`
### Response < 2 µg/mL

### Prompt # value lookup — system APAE001 (ATCC27853), readout MIC, item `CNC(=O)[C@@H](NC(=O)c1ccc(C#Cc2ccc(CN3CCOCC3)cc2)cc1)[C@@H](C)N`
### Response > 64 µg/mL

* * *

- System: AABA1060 (clinical isolate of Acinetobacter baumannii)
- experimental details: MIC broth microdilution, AABA1060
- Format: cell-based
- reported conditions: Acinetobacter baumannii, read-out: MIC AABA1060
measured endpoint: MIC

### Prompt Look up MIC for this molecule: CC(C)(N)[C@H](NC(=O)c1ccc(C#C/C=C/c2ccccc2)cc1)C(=O)NO [Example 104-5]
### Response < 2 µg/mL

### Prompt Consider the molecule shown here: C[C@@H](N)[C@H](NC(=O)c1ccc(C#CC#Cc2cccnc2)cc1)C(=O)NO [Example 88-3] What is its recorded MIC?
### Response 2 to 16 µg/mL

### Prompt What measured MIC goes with C[C@@H](O)[C@H](NC(=O)c1ccc(Sc2ccc(CN3CCOCC3)cc2)cc1)C(=O)NO [Example 47-5] ?
### Response > 64 µg/mL

### Prompt Recorded MIC for O=C(CNC1CC1)NC[C@H](NC(=O)c1ccc(C#C/C=C/c2ccc(CO)cc2)cc1)C(=O)NO [Example 103-1] , please?
### Response > 64 µg/mL

### Prompt Given the molecule CC(C)(N)[C@H](NC(=O)c1ccc(C#CC#Cc2ccccc2F)cc1)C(=O)NO [Example 82-29] , what is its reported MIC?
### Response < 2 µg/mL

### Prompt For the molecule C[C@@H](N)[C@H](NC(=O)c1ccc(C#CC#Cc2ccc(F)cc2)cc1)C(=O)NO [Example 82-12] , what MIC is on record?
### Response 2 to 16 µg/mL

### Prompt May I ask what MIC has been recorded for C[C@@H](N)[C@H](NC(=O)c1ccc(CCc2ccc(CN3CCOCC3)cc2)cc1)C(=O)NO [Example 136-1] ?
### Response 16 to 64 µg/mL

### Prompt Which MIC value is on record for CCOCc1ccc(C#CC#Cc2ccc(C(=O)N[C@H](C(=O)NO)C(C)(C)O)cc2)cc1 [Example 82-21] ?
### Response < 2 µg/mL

### Prompt For C[C@@H](N)[C@H](NC(=O)c1ccc(C#Cc2ccc(CNCC3CCCO3)cc2)cc1)C(=O)NO (stereo partly shown) [Example 118-5] , what is its reported MIC?
### Response 16 to 64 µg/mL

### Prompt What value of MIC has been recorded for this entry: CC(C)(O)[C@H](NC(=O)c1ccc(C#C/C=C/c2ccc(CN3CCOCC3)cc2)cc1)C(=O)NO [Compound 97-2]
### Response < 2 µg/mL

### Prompt So what does the record say about MIC for CC(C)(O)[C@H](NC(=O)c1ccc(C#CC#CCC2CCCC2)cc1)C(=O)NO [Example 91-20] ?
### Response 2 to 16 µg/mL

### Prompt // returns reported MIC for input C[C@H](NCC(=O)NC[C@H](NC(=O)c1ccc(C#Cc2ccccc2)cc1)C(=O)NO)c1ccccc1 [Example 132-4]
### Response 2 to 16 µg/mL

### Prompt Reported MIC for C[C@@H](O)[C@H](NC(=O)c1ccc(/C=C/C#Cc2ccc(CO)cc2)cc1)C(=O)NO [Example 112-3] : what is it?
### Response 16 to 64 µg/mL

### Prompt Which value of MIC has been reported for C[C@@H](N)[C@H](NC(=O)c1ccc(C#CC#CC2CCCCC2)cc1)C(=O)NO [Example 91-4] in the records?
### Response 2 to 16 µg/mL

### Prompt Fill blank: measured MIC of the molecule CC(C)(O)[C@H](NC(=O)c1ccc(C#C/C=C/c2cccnc2)cc1)C(=O)NO [Example 106-5] is ____.
### Response 2 to 16 µg/mL

### Prompt Record request: MIC value, item C[C@@H](O)[C@H](NC(=O)c1ccc(C#C/C=C/c2ccccc2)cc1)C(=O)NO [Example 104-1]
### Response 2 to 16 µg/mL
